- measured_target: JARID1B (Homo sapiens, UniProt Q9UGL1)
- Construct: The FLAG tagged full length JARID1B enzyme was expressed in Sf21 insect cells using FLAG-JARID1B baculoviruses; FLAG (N); made in house; host or cells: Sf21 insect cells (baculovirus)
- Sequence (Q9UGL1 whole entry): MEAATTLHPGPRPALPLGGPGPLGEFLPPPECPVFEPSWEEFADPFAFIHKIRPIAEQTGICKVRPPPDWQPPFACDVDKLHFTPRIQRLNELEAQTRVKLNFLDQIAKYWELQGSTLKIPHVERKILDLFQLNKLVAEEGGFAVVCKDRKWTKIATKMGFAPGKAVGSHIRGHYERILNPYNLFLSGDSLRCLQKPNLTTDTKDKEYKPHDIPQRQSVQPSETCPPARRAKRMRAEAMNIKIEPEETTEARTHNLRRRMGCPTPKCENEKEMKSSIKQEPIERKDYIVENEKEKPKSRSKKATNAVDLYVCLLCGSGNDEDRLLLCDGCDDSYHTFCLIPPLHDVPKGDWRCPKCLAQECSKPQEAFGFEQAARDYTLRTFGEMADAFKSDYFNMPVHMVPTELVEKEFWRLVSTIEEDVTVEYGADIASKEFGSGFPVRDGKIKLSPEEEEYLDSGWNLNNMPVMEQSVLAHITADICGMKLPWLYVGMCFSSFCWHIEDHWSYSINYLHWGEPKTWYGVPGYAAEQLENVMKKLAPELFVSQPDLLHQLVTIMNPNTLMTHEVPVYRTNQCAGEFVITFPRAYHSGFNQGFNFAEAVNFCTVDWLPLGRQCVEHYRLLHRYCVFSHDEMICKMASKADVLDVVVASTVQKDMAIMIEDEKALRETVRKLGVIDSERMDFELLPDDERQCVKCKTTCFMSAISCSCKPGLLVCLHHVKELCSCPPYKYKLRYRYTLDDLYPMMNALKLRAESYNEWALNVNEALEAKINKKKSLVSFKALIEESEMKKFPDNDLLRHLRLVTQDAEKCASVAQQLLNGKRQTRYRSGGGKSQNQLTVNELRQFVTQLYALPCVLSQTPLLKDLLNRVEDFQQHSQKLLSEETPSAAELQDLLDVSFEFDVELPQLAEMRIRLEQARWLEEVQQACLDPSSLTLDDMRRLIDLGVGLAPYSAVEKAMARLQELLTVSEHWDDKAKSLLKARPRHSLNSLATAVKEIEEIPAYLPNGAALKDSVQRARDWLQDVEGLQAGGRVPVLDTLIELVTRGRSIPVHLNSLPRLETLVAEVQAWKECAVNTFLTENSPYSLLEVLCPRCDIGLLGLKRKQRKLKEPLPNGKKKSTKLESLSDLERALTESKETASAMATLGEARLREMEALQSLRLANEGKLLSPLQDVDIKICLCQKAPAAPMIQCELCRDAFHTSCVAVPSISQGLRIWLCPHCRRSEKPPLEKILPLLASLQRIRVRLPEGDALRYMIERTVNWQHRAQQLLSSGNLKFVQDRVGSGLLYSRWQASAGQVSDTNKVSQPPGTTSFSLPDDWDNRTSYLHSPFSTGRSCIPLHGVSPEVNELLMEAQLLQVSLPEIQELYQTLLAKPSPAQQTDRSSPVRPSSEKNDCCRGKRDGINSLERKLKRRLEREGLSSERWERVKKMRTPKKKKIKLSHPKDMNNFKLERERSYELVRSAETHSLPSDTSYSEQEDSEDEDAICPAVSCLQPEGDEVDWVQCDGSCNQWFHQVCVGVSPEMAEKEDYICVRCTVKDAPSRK
- assay_notes: FLAG-JARID1B histone demethylase assay with AlphaScreen detection (HTS and dose response);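 further: FLAG-tagged JARID1B at 4 nM acting on a biotinylated H3K4me3 peptide, demethylation read by AlphaScreen luminescence, with hits checked against bio-H3K4me2 without enzyme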
- Type: biochemical
- measurement_context: high-throughput screen, compound 20 μM, standard demethylase conditions (10 μM α-KG, 50 μM Fe (II)); read-out: Inhibitory effect (percent)
Counter-ions that a name gives are not always drawn.
measure: inhibition at 20 µM (%)

[[record]]
compound = "C=CCOc1c(Cl)cc(C=C[N+](=O)[O-])cc1OCC (single isomer, unassigned)"
measurement_unit = "%"
reported = 34.7

[[record]]
compound = "CC(=O)[C@]1(O)Cc2c(O)c3c(c(O)c2[C@@H](O[C@H]2C[C@H](N)[C@H](O)[C@H](C)O2)C1)C(=O)c1ccccc1C3=O.Cl (stereo in doubt) [YU040321, IDARUBICIN HCl, reference compound]"
measurement_unit = "%"
reported = 92.3

[[record]]
compound = "O=C1c2c(O)ccc(O)c2C(=O)c2c(NCCNCCO)ccc(NCCNCCO)c21 [YU034420, MITOXANTHRONE HYDROCHLORIDE, reference compound]"
measurement_unit = "%"
reported = 101

[[record]]
compound = "C#CCOc1c(Cl)cc(C(=S)N2CCOCC2)cc1OC"
measurement_unit = "%"
reported = 45.2

[[record]]
compound = "Oc1cc2c(cc1O)C1c3ccc(O)c(O)c3OCC1(O)C2 (stereo not drawn) [YU155005, HAEMATOXYLIN, reference compound]"
measurement_unit = "%"
reported = 101

[[record]]
compound = "CN1CCc2cccc3c2C1Cc1ccc(O)c(O)c1-3 (stereo not drawn) [YU033696, APOMORPHINE HYDROCHLORIDE, reference compound]"
measurement_unit = "%"
reported = 89.4

[[record]]
compound = "CCOc1c(O)ccc(C=O)c1[N+](=O)[O-]"
measurement_unit = "%"
reported = 66.1

[[record]]
compound = "O=C(NNC(=S)NCC1CCCO1)c1ccccn1 (stereo not drawn)"
measurement_unit = "%"
reported = 84.8

[[record]]
compound = "Cc1cc2c(C(C)C)c(O)c(O)c(C=O)c2c(O)c1-c1c(C)cc2c(C(C)C)c(O)c(O)c(C=O)c2c1O [YU034280, GOSSYPOL-ACETIC ACID COMPLEX, reference compound]"
measurement_unit = "%"
reported = 78.2

[[record]]
compound = "Cc1cccc(C(=O)NNC(=S)NC(=O)CC(C)C)c1"
measurement_unit = "%"
reported = 48.4

[[record]]
compound = "CC(C)NNC(=O)c1ccncc1 [YU034066, IPRONIAZID SULFATE, reference compound]"
measurement_unit = "%"
reported = 75.9

[[record]]
compound = "O=C(NCc1ccccn1)c1ccc(NC(=O)c2ccco2)cc1"
measurement_unit = "%"
reported = 41.5

[[record]]
compound = "Cc1nnc(S)n1NCc1ccc2c(c1)OCO2"
measurement_unit = "%"
reported = 31.5

[[record]]
compound = "O=C(O)c1cc(N(Cc2ccccc2O)Cc2cc(O)ccc2O)ccc1O [YU154829, LAVENDUSTIN A, reference compound]"
measurement_unit = "%"
reported = 50.3

[[record]]
compound = "O=C(NCCc1ccc(F)cc1)C(Cl)(Cl)Cl"
measurement_unit = "%"
reported = 63.9

[[record]]
compound = "CC1(C)C(=O)C2(CCCCC2)C(=O)OC1c1ccc(O)cc1 (stereo not drawn)"
measurement_unit = "%"
reported = 34.3

[[record]]
compound = "C=NC(C(=O)N[C@H]1C(=O)N2C1SC(C)(C)C2C(=O)O)c1ccccc1 (stereo in doubt) [YU034263, METAMPICILLIN SODIUM, reference compound]"
measurement_unit = "%"
reported = 95.6

[[record]]
compound = "CN(C)c1ccc(C(=C2C=CC(=[N+](C)C)C=C2)c2ccc(N(C)C)cc2)cc1 [YU033841, GENTIAN VIOLET, reference compound]"
measurement_unit = "%"
reported = 106

[[record]]
compound = "O=C(O)CCCSCC(=O)Nc1ccccc1"
measurement_unit = "%"
reported = 60.2

[[record]]
compound = "CC(=O)NNC(=O)c1ccncc1"
measurement_unit = "%"
reported = 88.7

[[record]]
compound = "O=C(CCCCCCC(=O)N(c1ccccc1)c1ccccc1)N(c1ccccc1)c1ccccc1"
measurement_unit = "%"
reported = 68.9

[[record]]
compound = "CCn1c(S)nnc1-c1ccncc1"
measurement_unit = "%"
reported = 38.8

[[record]]
compound = "Clc1ccc2nc(-c3ccccn3)c(Nc3ccc4c(c3)OCO4)n2c1"
measurement_unit = "%"
reported = 83.1

[[record]]
compound = "c1ccc2c(NCc3ccncc3)cccc2c1"
measurement_unit = "%"
reported = 87.7

[[record]]
compound = "Cn1c(SCC=Cc2ccccc2)nnc1-c1cnccn1 (single isomer, unassigned)"
measurement_unit = "%"
reported = 33.8

[[record]]
compound = "CN1C(=O)c2ccc(NC(=O)c3ccc4c(c3)OCO4)cc2C1=O"
measurement_unit = "%"
reported = 96.7

[[record]]
compound = "O=C(O)C=Cc1ccc(O)c(O)c1 (single isomer, unassigned) [YU155280, CAFFEIC ACID, reference compound]"
measurement_unit = "%"
reported = 67.3

